Hello, the source for this data is patent US8404803B2, in case you need it.

The reader will find reported frequency of CD4-positive/IL-4-positive T cells values listed item by item below.
Tested on: CD4-positive/IL-4-producing T cells
ASSAY_DETAILS: Flow cytometry detection of CD4-positive/IL-4-positive T cells in peptide-stimulated mononuclear cell samples
Assay type: cell-based, human
TEST_PARAMETERS: typical example of flow cytometry, FIGS. 6 and 7; IL-2 and analogue peptide added
Answer with a number only, understood to be in %.

Illustrative cases are given below, each with its answer.
GHTAPGPLLVPFTLNFTITN (listed as Homo sapiens) [OVCA11] ... 7.06
PFTLNFTITNLRYEENMRHP (listed as Homo sapiens) [OVCA12] ... 0.57
GTSGTPASLPGHTAPGPLLV (listed as Homo sapiens) [OVCA10] ... 0.05

Query: I am curious: what frequency of CD4-positive/IL-4-positive T cells value has been reported for STPGTSTVHLGTSGTPASLP (listed as Homo sapiens) [OVCA9] ?
Reply: 0.05
